I'd be grateful if you could share measured median seed-adjusted z-score for these entries.
# assay-info: Novel Modifiers of Survival Motor Neuron (SMN) Protein: Gene Identification via Genome-wide siRNA Screen;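 note: luminescence tracks full-length SMN protein made from the SMN2 reporter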
# experimental-setup: HEK293T SMN2-luciferase reporter, siRNA knockdown, 72 h; actives lie on both sides
Screen size: about 31,000 sequences; about 1,400 (4.5%) were called active. Shown is part of a subset that was picked to be rich in actives.
Output: the number by itself.

Assign median seed-adjusted z-score to the following record: GCCUGUUCGAAAGCGCAAATT against UBR4 0.602

Read off the recorded median seed-adjusted z-score for GGAUCAAGACGUGAACGAUTT against CPSF6 -2.38

Please look at this sequence and report its median seed-adjusted z-score: GAAUAUGGGUUGGCCUAUATT against ZNF655 -0.156

Look up and report measured median seed-adjusted z-score for this entry: CAACAACAGGUAUGAGAUATT against ACCN2 -0.597

Specify median seed-adjusted z-score for UGAUAGAGAUCAACCCAUATT against PSMB5 and stop. -1.37

Provide median seed-adjusted z-score value for the following sequence: CUAUGGACAUGUCAAUUGUTT against CCNA2 0.136

Fill in reported median seed-adjusted z-score for this entry: GUUCAAUACUUGAACACGATT against FFAR2 0.146

Return median seed-adjusted z-score (reported value) for this sequence: UUACCAUCGUGAAGAGAAATT against CLEC5A -1.07

Supply recorded median seed-adjusted z-score for AAUGGAACCUGUAAGUGUATT against GCN5L2 here. 0.013

Determine from records and report median seed-adjusted z-score for GCCUUACAACUCUAAUGAATT against ZNF519 0.0162

Give the value of median seed-adjusted z-score reported for the following: GGUGAUUCAAGAUGCCCAATT against PXMP2 -0.444

State its median seed-adjusted z-score: GGGUGAAGUCUCUCAAGAATT against LLGL1 -1.13

Consider the sequence GGAAGAAAGCGGGACUUUUTT against PPME1 . State its measured median seed-adjusted z-score. 0.342

Answer with the recorded median seed-adjusted z-score for the sequence listed here: AAGACAAGCUAAAAAUGAUTT against YWHAE 1.38

Let me know recorded median seed-adjusted z-score for GCAGCAUCAAUGUCUGGAATT against SLC6A8 , thanks. -0.0673

Look up and state reported median seed-adjusted z-score for CCAAGAUGAGUAUAAAACATT against HRC 1.06

Consider the sequence CGAGCCACCGAGAAGAUAATT against ATAD3A and give its recorded median seed-adjusted z-score. -0.283

Provide one value: measured median seed-adjusted z-score of GCAAGGGUCUCGGAUUAUATT against TMPRSS12 0.0961

Please report the measured median seed-adjusted z-score for GGUGUGAACUGCGAAGUGATT against NOTCH3 0.395

Check the records and state median seed-adjusted z-score for UGAUGGAAGUUGUCACUUATT against BLK -0.274

Return the recorded median seed-adjusted z-score value; entry: GCAAGGUUCCUAGCGUGUATT against VCAM1 0.19

Tell me its median seed-adjusted z-score given GAUCAGGACUUUAUGUUCATT against ZNF225 as the entry. 0.0761

Entry GGAAUAACAGUUGUAGGAATT against TMTC3 needs its median seed-adjusted z-score filled in; supply it. 0.266

Give the measured median seed-adjusted z-score for GAAAGGAUCAGUGUCGAUATT against OCRL -0.545

Return median seed-adjusted z-score (reported value) for this sequence: GGUUUGUCCCUUCGCUAUATT against LRRTM3 -0.0808

Entry UGAAAUGGAUGAAAACCUATT against SNAP25 needs its median seed-adjusted z-score filled in; supply it. 0

Quick one: give measured median seed-adjusted z-score for CGCUAUCCCAAUCGCUUUATT against CYB5R1 0

Give recorded median seed-adjusted z-score. GCAGUGAUCAUAAUUCUCATT against SLC7A1 0.445

Assign median seed-adjusted z-score to the following record: GGAGUCAAGUGAAGCAGAATT against L3MBTL2 -0.312

Please give measured median seed-adjusted z-score of the following entry: GAAUAAGUGACUAUCCAAATT against SENP2 0

Recall and state the measured median seed-adjusted z-score for GCAAUUACAUUGUACGCUUTT against ETFDH . 0.154

Report median seed-adjusted z-score for CAAGACCGAGAGAACAAUATT against ENOX1 0.0694

Input CAUCGGUGCCCAGAAGUCATT against SSBP4 , output reported median seed-adjusted z-score. 0.254

Output measured median seed-adjusted z-score for this item: GCAAAGCUCUAAAGCCCAATT against TXNDC12 -0.154

Indicate its recorded median seed-adjusted z-score; the sequence in question is GAAUAUCUAGGUACAUGGATT against ADCY10 -0.573

Give the measured median seed-adjusted z-score for GCAAAAAGAGCGAUCAGAATT against CNDP1 0.203

Quick one: give measured median seed-adjusted z-score for CAGUGGGAACGACAACUUUTT against HNRPA1P4 -0.906

Note median seed-adjusted z-score for the sequence shown: GGAUCGUAGUGAAACCGAUTT against DDX17 0.231

Read off the recorded median seed-adjusted z-score for CAGGUAUUCUGGUCAAUAUTT against ATL3 0.201

For the sequence AGAUACUCACGGACAUUAUTT against COASY , report median seed-adjusted z-score. 0

In one line, give reported median seed-adjusted z-score of the entry GCAUCAACGCGGGAUUCCATT against TFAP4 . -0.0515

Provide one value: measured median seed-adjusted z-score of GCCUAUAGGAUUGAACCAATT against DDHD2 0.447

Supply reported median seed-adjusted z-score belonging to this sequence: GUAUGUCAAGGAGAACGGATT against CTSL2 -1.04

Give median seed-adjusted z-score for CCAGUUUAUUGGAAACCGATT against NOP56 0.307

Supply measured median seed-adjusted z-score of GAAUCAAUAUAAUCUAGCATT against UBE2Q2 in your reply. 0.146

Supply recorded median seed-adjusted z-score for CUAUGUGAUUGAUCAAGGATT against PRKAR1A here. 0.428

Tell us which median seed-adjusted z-score value is on record for CGUCAUCACCCUCAACUAUTT against NLGN3 -0.0279

For the sequence GGGCUGUGAUCUUGUCGAATT against AGMAT , report median seed-adjusted z-score. -0.0269

Give the measured median seed-adjusted z-score for GAGUGGACUGUGGAAGAUATT against RCOR1 -1.13

Find the measured median seed-adjusted z-score of GCGAGUGUCUUGAAGUAUATT against PLAA and report it. -0.192
